AUC of dose-response viability curve values, listed per item
test system: SN12C; assay: AUC of dose-response viability curve, drug + dasatinib, normalised to DMSO (arbitrary (AUC of normalised viability)); higher = less growth inhibition; details: treatment: drug + dasatinib (fixed dose, not stated); 5 days

Worked set:
>>> result_value("O=C(NCCCNc1nc(Nc2cccc(NC(=O)N3CCCC3)c2)ncc1I)c1cccs1 [BX-795] + Cc1nc(Nc2ncc(C(=O)Nc3c(C)cccc3Cl)s2)cc(N2CCN(CCO)CC2)n1 [dasatinib]")
2.44
>>> result_value("CN(C)Cc1cccc(N/C(=C2\\C(=O)Nc3cc(C(=O)N(C)C)ccc32)c2ccccc2)c1 + Cc1nc(Nc2ncc(C(=O)Nc3c(C)cccc3Cl)s2)cc(N2CCN(CCO)CC2)n1 [dasatinib]")
2.35

Please supply the value of reported AUC of dose-response viability curve for the item Cc1cc(Nc2cc(N3CCN(C)CC3)nc(Sc3ccc(NC(=O)C4CC4)cc3)n2)n[nH]1 [VX-680 (MK-0457, Tozasertib)] + Cc1nc(Nc2ncc(C(=O)Nc3c(C)cccc3Cl)s2)cc(N2CCN(CCO)CC2)n1 [dasatinib] 1.97

Please supply the value of reported AUC of dose-response viability curve for the item Nc1ncnc2c1c(-c1cnc3[nH]ccc3c1)nn2C1CCCC1 [PP-121] + Cc1nc(Nc2ncc(C(=O)Nc3c(C)cccc3Cl)s2)cc(N2CCN(CCO)CC2)n1 [dasatinib] 1.73

Please supply the value of reported AUC of dose-response viability curve for the item Nc1cccc(-c2cc3c(Oc4cccc(O)c4)ncnc3[nH]2)c1 [TWS119] + Cc1nc(Nc2ncc(C(=O)Nc3c(C)cccc3Cl)s2)cc(N2CCN(CCO)CC2)n1 [dasatinib] 2.33

Please supply the value of reported AUC of dose-response viability curve for the item COc1ccc(C2=NC(c3ccc(Cl)cc3)C(c3ccc(Cl)cc3)N2C(=O)N2CCNC(=O)C2)c(OC(C)C)c1 (stereo not drawn) [Nutlin-3] + Cc1nc(Nc2ncc(C(=O)Nc3c(C)cccc3Cl)s2)cc(N2CCN(CCO)CC2)n1 [dasatinib] 2.62

Please supply the value of reported AUC of dose-response viability curve for the item Cc1ccc(C(=O)Nc2cccc(C(F)(F)F)c2)cc1Nc1nc(-c2cccnc2)nc2c1cnn2C [NVP-BHG712] + Cc1nc(Nc2ncc(C(=O)Nc3c(C)cccc3Cl)s2)cc(N2CCN(CCO)CC2)n1 [dasatinib] 2.37

Please supply the value of reported AUC of dose-response viability curve for the item FC(F)(F)c1ccc(/C=C/c2nc(COc3ccc(CCCCn4ccnn4)cc3)co2)cc1 [Mubritinib (TAK 165)] + Cc1nc(Nc2ncc(C(=O)Nc3c(C)cccc3Cl)s2)cc(N2CCN(CCO)CC2)n1 [dasatinib] 1.09

Please supply the value of reported AUC of dose-response viability curve for the item Oc1cc(O)cc(/C=C/c2ccc(O)c(O)c2)c1 [Piceatannol] + Cc1nc(Nc2ncc(C(=O)Nc3c(C)cccc3Cl)s2)cc(N2CCN(CCO)CC2)n1 [dasatinib] 2.46

Please supply the value of reported AUC of dose-response viability curve for the item Cl.Cl.Clc1ccc(Nc2nnc(Cc3ccncc3)c3ccccc23)cc1 [Vatalanib dihydrochloride (PTK787)] + Cc1nc(Nc2ncc(C(=O)Nc3c(C)cccc3Cl)s2)cc(N2CCN(CCO)CC2)n1 [dasatinib] 2.32

Please supply the value of reported AUC of dose-response viability curve for the item C=CC(=O)N1CCC[C@@H](n2nc(-c3ccc(Oc4ccccc4)cc3)c3c(N)ncnc32)C1 + Cc1nc(Nc2ncc(C(=O)Nc3c(C)cccc3Cl)s2)cc(N2CCN(CCO)CC2)n1 [dasatinib] 2.28

Please supply the value of reported AUC of dose-response viability curve for the item Cn1c(=O)n(-c2ccc(C(C)(C)C#N)cc2)c2c3cc(-c4cnc5ccccc5c4)ccc3ncc21 [BEZ235 (NVP-BEZ235)] + Cc1nc(Nc2ncc(C(=O)Nc3c(C)cccc3Cl)s2)cc(N2CCN(CCO)CC2)n1 [dasatinib] 1.63

Please supply the value of reported AUC of dose-response viability curve for the item N#Cc1c(O)c2c(-c3ccc(-c4ccccc4O)cc3)csc2[nH]c1=O + Cc1nc(Nc2ncc(C(=O)Nc3c(C)cccc3Cl)s2)cc(N2CCN(CCO)CC2)n1 [dasatinib] 2.35

Please supply the value of reported AUC of dose-response viability curve for the item COc1cc2c(Oc3ccc(NC(=O)C4(C(=O)Nc5ccc(F)cc5)CC4)cc3F)ccnc2cc1OCCCN1CCOCC1 + Cc1nc(Nc2ncc(C(=O)Nc3c(C)cccc3Cl)s2)cc(N2CCN(CCO)CC2)n1 [dasatinib] 1.56

Please supply the value of reported AUC of dose-response viability curve for the item CCc1cccc(CC)c1NC(=O)N1Cc2[nH]nc(NC(=O)c3ccc(N4CCN(C)CC4)cc3)c2C1 + Cc1nc(Nc2ncc(C(=O)Nc3c(C)cccc3Cl)s2)cc(N2CCN(CCO)CC2)n1 [dasatinib] 1.9

Please supply the value of reported AUC of dose-response viability curve for the item C=CC(=O)Nc1cccc(Oc2nc(Nc3ccc(N4CCN(C)CC4)cc3OC)ncc2Cl)c1 [WZ4002] + Cc1nc(Nc2ncc(C(=O)Nc3c(C)cccc3Cl)s2)cc(N2CCN(CCO)CC2)n1 [dasatinib] 2.29

Please supply the value of reported AUC of dose-response viability curve for the item O=C(O)c1ccc2c(c1)nc(Nc1cccc(Cl)c1)c1ccncc12 [cx-4945 (Silmitasertib)] + Cc1nc(Nc2ncc(C(=O)Nc3c(C)cccc3Cl)s2)cc(N2CCN(CCO)CC2)n1 [dasatinib] 2.52

Please supply the value of reported AUC of dose-response viability curve for the item CC(=O)Nc1ccc(NC(=S)NC(=O)c2ccc(C(C)(C)C)cc2)cc1 [Tenovin-1] + Cc1nc(Nc2ncc(C(=O)Nc3c(C)cccc3Cl)s2)cc(N2CCN(CCO)CC2)n1 [dasatinib] 2.47

----------
test system: A498; assay: AUC of dose-response viability curve, drug + dasatinib, normalised to DMSO (arbitrary (AUC of normalised viability)); higher = less growth inhibition; conditions: treatment: drug + dasatinib (fixed dose, not stated); 5 days
attribute-measured: AUC of dose-response viability curve
Could you keep your reply to the number by itself?

Worked set:
>>> result_value("Nc1ccc(C(=O)Nc2cccc(-c3nc(N4CCOCC4)c4oc5ncccc5c4n3)c2)cn1 + Cc1nc(Nc2ncc(C(=O)Nc3c(C)cccc3Cl)s2)cc(N2CCN(CCO)CC2)n1")
3.03
>>> result_value("CNC(=O)c1ccc(-c2cnc3ncc(Cc4ccc5ncccc5c4)n3n2)cc1F + Cc1nc(Nc2ncc(C(=O)Nc3c(C)cccc3Cl)s2)cc(N2CCN(CCO)CC2)n1")
3.63
>>> result_value("c1cncc(CN2CCC(n3ncc4c(N5CCOCC5)nc(-c5ccc6[nH]ccc6c5)nc43)CC2)c1 [WAY-600] + Cc1nc(Nc2ncc(C(=O)Nc3c(C)cccc3Cl)s2)cc(N2CCN(CCO)CC2)n1")
3.1
>>> result_value("CCC[C@H](NC(=O)/C(C#N)=C/c1cccc(Br)n1)c1ccccc1 [WP1130] + Cc1nc(Nc2ncc(C(=O)Nc3c(C)cccc3Cl)s2)cc(N2CCN(CCO)CC2)n1")
2.69

For the next question, use this molecule.
Please supply the value of reported AUC of dose-response viability curve for the item COc1ccc(-c2ccc3c(N4CCOCC4)nc(N4C[C@@H](C)O[C@@H](C)C4)nc3n2)cc1CO + Cc1nc(Nc2ncc(C(=O)Nc3c(C)cccc3Cl)s2)cc(N2CCN(CCO)CC2)n1 2.77

----------
minimum viability across doses values, listed per item
tested on: SN12C; assay: minimum viability across doses, drug + dasatinib, relative to DMSO (fraction); higher = less growth inhibition; conditions: treatment: drug + dasatinib (fixed dose, not stated); 5 days
Could you keep your reply to the number by itself?

>>> result_value("C=CC(=O)N1CCC[C@@H](n2nc(-c3ccc(Oc4ccccc4)cc3)c3c(N)ncnc32)C1 + Cc1nc(Nc2ncc(C(=O)Nc3c(C)cccc3Cl)s2)cc(N2CCN(CCO)CC2)n1 [dasatinib]")
0.496

Report its minimum viability across doses with SN12C as the test system: CN(c1ncccc1CNc1nc(Nc2ccc3c(c2)CC(=O)N3)ncc1C(F)(F)F)S(C)(=O)=O.O=S(=O)(O)c1ccccc1 + Cc1nc(Nc2ncc(C(=O)Nc3c(C)cccc3Cl)s2)cc(N2CCN(CCO)CC2)n1 [dasatinib] 0.012

Report its minimum viability across doses with SN12C as the test system: COCC(=O)NC/C=C/c1ccc2ncnc(Nc3ccc(Oc4ccc(C)nc4)c(C)c3)c2c1 + Cc1nc(Nc2ncc(C(=O)Nc3c(C)cccc3Cl)s2)cc(N2CCN(CCO)CC2)n1 [dasatinib] 0.632

Report its minimum viability across doses with SN12C as the test system: Cn1cnc(-c2cc3nccc(Oc4ccc(NC(=S)NC(=O)Cc5ccccc5)cc4F)c3s2)c1 [MGCD-265] + Cc1nc(Nc2ncc(C(=O)Nc3c(C)cccc3Cl)s2)cc(N2CCN(CCO)CC2)n1 [dasatinib] 0.515

----------
test system: TK-10; assay: AUC of dose-response viability curve, drug alone (arbitrary (AUC of normalised viability)); higher = less growth inhibition; conditions: treatment: drug alone; 5 days
Class (by AUC of dose-response viability curve) -- lower segment (below 2), middle segment (2 to below 3), upper segment (3 or more)

Worked cases, answers included:
>>> class_label("Cc1c(CN2CCN(C(=O)[C@H](C)O)CC2)sc2c(N3CCOCC3)nc(-c3cnc(N)nc3)nc12 [GDC-0980 (RG7422)]")
"lower segment"
>>> class_label("Nc1nc(Nc2ccc(S(N)(=O)=O)cc2)nn1C(=O)c1c(F)cccc1F")
"middle segment"
>>> class_label("COc1cc2c(Nc3ccc(NC(=O)c4ccccc4)cc3)ncnc2cc1OCCCN1CCOCC1")
"middle segment"
>>> class_label("COc1cc(Nc2ncc(F)c(Nc3ccc4c(n3)NC(=O)C(C)(C)O4)n2)cc(OC)c1OC [R406(free base)]")
"middle segment"
>>> class_label("CCS(=O)(=O)Nc1ccc2c(c1)/C(=C(/Nc1ccc(CN3CCCCC3)cc1)c1ccccc1)C(=O)N2 [Hesperadin]")
"middle segment"

Consider C[C@H](NC(=O)/C(C#N)=C/c1cccc(Br)n1)c1ccccc1 [WP1066] . To which AUC of dose-response viability curve class does it belong? upper segment

Consider Oc1cccc(-c2nc(N3CCOCC3)c3oc4ncccc4c3n2)c1 [PI-103] . To which AUC of dose-response viability curve class does it belong? middle segment

Consider Cc1cc(Nc2nc(N[C@@H](C)c3ccc(F)cc3)c(C#N)cc2F)n[nH]1 [AZ 960] . To which AUC of dose-response viability curve class does it belong? middle segment

Hello, the source for this data is the supplement of paper PMC8149375, in case you need it.
